Test: Pharmacokinetics in female BALB/c nude mice bearing A375 xenografts, 1 day dosing (PK and PD study): plasma, tumor and brain concentrations, AUC
Format: in vivo
Conditions: mouse, tumor, po, 5 mg/kg, 5 mg/kg p.o. BID × 1 day; post 2nd dose; 4 h; read-out: Mean Concentration in Tumor ± SEM
metric_name: concentration at 4 h (ng/g)
Give the quantity in ng/g, number only.

Data request: # get_value(readout='concentration at 4 h', item= CCN(C)S(=O)(=O)Nc1ccc(F)c(Oc2ccc3ncn(C4CC5(CCN(C6CC7(C6)CN(c6cc8c(cc6F)c(N6CCC(=O)NC6=O)nn8C)C7)CC5)C4)c(=O)c3c2)c1C#N (stereo not shown) )
Data returned: 636

###

Assay: Example 7 pharmacokinetics assay for PKPD study (plasma, tumor, liver)
Format: in vivo, BALB/c nude mice
Settings: mouse, tumor, po; 100 mg/kg, p.o., single dose; 1 h; read-out: Concentration in Tumor (mean ± SEM)
metric_name: concentration at 1 h (ng/g)
Give the quantity in ng/g, number only.

Data request: # get_value(readout='concentration at 1 h', item= CC(C)(C)c1nc(-c2cccc(NS(=O)(=O)c3c(F)cccc3F)c2F)c(-c2ccnc(N)n2)s1 [Dabrafenib, dabrafenib, reference compound] )
Data returned: 9520

###

Assay: Pharmacokinetics in female BALB/c nude mice bearing A375 xenografts, 1 day dosing (PK and PD study): plasma, tumor and brain concentrations, AUC
Type: in vivo
Conditions: mouse, brain, po, 2 mg/kg, 2 mg/kg p.o. TID × 1 day; post 3rd dose; 4 h; read-out: Mean Concentration in Brain ± SEM
metric_name: concentration at 4 h (ng/g)
Give the quantity in ng/g, number only.

Data request: # get_value(readout='concentration at 4 h', item= CCN(C)S(=O)(=O)Nc1ccc(F)c(Oc2ccc3ncn([C@H]4COC5(CCN(C6CC7(C6)CN(c6cc8c(cc6F)c(N6CCC(=O)NC6=O)nn8C)C7)CC5)C4)c(=O)c3c2)c1C#N )
Data returned: 26.9

###

Entries annotated with measured DC50
Biological target: BRAF V600E (Homo sapiens, UniProt P15056+Q96SW2, V600E)
Construct: knock-in of the HiBiT tag to the endogenous BRAF V600E locus; host or cells: A375.10 (A375 clonal line, CRISPR HiBiT knock-in at the endogenous BRAF V600E locus)
Sequence (P15056 whole entry V600E): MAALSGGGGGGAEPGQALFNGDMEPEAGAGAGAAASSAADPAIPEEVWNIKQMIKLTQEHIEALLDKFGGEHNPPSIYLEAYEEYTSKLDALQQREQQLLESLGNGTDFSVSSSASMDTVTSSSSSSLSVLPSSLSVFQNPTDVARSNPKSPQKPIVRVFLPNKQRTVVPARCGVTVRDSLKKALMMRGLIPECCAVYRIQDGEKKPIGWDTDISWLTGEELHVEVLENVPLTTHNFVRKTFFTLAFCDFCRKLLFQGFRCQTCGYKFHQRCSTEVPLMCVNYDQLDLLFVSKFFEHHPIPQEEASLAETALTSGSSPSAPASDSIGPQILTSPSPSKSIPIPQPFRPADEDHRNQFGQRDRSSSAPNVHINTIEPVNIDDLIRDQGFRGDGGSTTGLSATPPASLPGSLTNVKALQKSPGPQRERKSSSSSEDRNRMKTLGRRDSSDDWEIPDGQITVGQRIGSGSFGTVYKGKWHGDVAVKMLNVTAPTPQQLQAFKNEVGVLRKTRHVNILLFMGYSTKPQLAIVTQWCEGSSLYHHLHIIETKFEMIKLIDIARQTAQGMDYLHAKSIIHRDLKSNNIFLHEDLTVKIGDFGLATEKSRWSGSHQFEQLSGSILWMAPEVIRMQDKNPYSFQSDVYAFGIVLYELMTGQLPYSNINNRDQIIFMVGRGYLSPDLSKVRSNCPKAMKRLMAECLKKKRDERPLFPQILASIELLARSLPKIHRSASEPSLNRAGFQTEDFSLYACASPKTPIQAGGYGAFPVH
Sequence (Q96SW2 whole entry): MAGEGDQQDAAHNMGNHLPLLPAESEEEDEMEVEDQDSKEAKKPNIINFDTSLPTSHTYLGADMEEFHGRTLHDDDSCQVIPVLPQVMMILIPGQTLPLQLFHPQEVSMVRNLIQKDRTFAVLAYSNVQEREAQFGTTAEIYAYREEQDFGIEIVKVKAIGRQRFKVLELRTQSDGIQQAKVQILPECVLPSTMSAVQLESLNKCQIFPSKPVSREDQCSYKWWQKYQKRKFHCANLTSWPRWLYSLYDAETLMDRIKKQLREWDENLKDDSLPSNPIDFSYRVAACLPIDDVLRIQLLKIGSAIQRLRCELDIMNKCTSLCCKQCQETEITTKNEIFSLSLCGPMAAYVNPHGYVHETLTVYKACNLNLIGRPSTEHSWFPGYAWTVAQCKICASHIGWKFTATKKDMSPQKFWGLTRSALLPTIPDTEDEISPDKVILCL
Sequence (Q16531 whole entry partner): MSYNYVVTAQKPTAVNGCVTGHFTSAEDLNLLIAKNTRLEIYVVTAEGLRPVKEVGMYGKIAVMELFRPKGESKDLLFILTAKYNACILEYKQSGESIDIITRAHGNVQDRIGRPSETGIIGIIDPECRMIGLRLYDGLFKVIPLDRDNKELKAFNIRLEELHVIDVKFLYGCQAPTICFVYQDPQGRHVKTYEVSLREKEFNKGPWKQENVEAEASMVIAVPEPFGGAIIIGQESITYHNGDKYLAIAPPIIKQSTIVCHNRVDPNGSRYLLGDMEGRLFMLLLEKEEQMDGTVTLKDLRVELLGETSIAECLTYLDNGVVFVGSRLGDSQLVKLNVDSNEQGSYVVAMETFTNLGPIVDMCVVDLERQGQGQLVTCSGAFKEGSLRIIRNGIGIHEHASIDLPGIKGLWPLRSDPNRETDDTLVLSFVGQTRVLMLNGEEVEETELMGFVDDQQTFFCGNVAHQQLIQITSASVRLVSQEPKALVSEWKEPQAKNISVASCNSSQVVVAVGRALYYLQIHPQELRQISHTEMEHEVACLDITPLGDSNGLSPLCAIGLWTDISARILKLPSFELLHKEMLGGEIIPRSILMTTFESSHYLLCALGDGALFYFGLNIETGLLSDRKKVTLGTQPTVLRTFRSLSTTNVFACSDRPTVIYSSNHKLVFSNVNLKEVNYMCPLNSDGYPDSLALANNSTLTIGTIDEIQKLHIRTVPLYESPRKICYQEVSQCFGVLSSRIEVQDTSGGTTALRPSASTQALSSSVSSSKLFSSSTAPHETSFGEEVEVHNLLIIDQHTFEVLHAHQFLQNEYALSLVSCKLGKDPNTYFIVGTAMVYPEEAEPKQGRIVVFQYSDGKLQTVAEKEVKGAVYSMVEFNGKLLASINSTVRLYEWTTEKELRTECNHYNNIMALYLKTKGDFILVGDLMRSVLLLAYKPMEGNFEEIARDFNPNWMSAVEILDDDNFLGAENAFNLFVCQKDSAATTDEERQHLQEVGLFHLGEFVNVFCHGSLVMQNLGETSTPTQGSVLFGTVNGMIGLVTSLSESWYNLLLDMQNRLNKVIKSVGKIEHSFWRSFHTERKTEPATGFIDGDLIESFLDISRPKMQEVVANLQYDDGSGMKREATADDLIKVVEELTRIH
Assay: BRAF V600E HiBiT Degradation Assay
Assay type: cell-based
Conditions: A375.10 cells, BRAF V600E, 2 hours; inflection point; read-out: HiBiT-Degradation A375.10 BRAF 2 hours IP
Procedure: Compounds of this invention were tested for degradation of mutant BRAF V600E using the HiBiT assay, a luminescence-based assay for quantification of cellular protein levels using the Nano-Glo® HiBiT Lytic Detection System (Catalog No. N3050, Promega, Madison, WI USA). […] Data were analyzed with a 4-parameter logistic fit to generate sigmoidal dose-response curves. […]

compound	DC50
CCN(C)S(=O)(=O)Nc1ccc(F)c(Oc2ccc3ncn([C@H]4COC5(CCN(C6CC(c7ccc(NC8CCC(=O)NC8=O)cc7F)C6)CC5)C4)c(=O)c3c2)c1C#N (single isomer, unassigned) [Compound 63]	< 1000 nM

Data request: # get_value(readout='DC50', item= CCN(C)S(=O)(=O)Nc1ccc(F)c(Oc2ccc3ncc(OCC4(F)CCN(C5CCC(c6cc7c(cc6F)c(N6CCC(=O)NC6=O)nn7C)CC5)CC4)nc3c2)c1C#N (single isomer, unassigned) [Compound 228] )
Data returned: < 1000 nM

###

Assay: Pharmacokinetics in female BALB/c nude mice bearing A375 xenografts, 1 day dosing (PK and PD study): plasma, tumor and brain concentrations, AUC
Type: in vivo
Details: mouse, plasma, po, 1.5 mg/kg, Compound 141; 1.5 mg/kg p.o. BID × 1 day; post 2nd dose; 0.25 h; read-out: Mean Concentration in Plasma ± SEM
metric_name: concentration at 0.25 h (ng/mL)
Give the quantity in ng/mL, number only.

Data request: # get_value(readout='concentration at 0.25 h', item= CCN(C)S(=O)(=O)Nc1ccc(F)c(Oc2ccc3ncn(C4CC5(CCN(C6CC7(C6)CN(c6cc8c(cc6F)c(N6CCC(=O)NC6=O)nn8C)C7)CC5)C4)c(=O)c3c2)c1C#N (stereo not shown) )
Data returned: 359

###

Entries annotated with measured GI50
Test system: A375-NRAS^Q61K cells
Assay: CTGlo Cell Viability Assay, A375-NRAS^Q61K (A375.11) cells, 96 hours
Assay type: cell-based, human
Settings: Homo sapiens, 96 h, A375.11 (A375-NRAS^Q61K) cells

compound	GI50
CCN(C)S(=O)(=O)Nc1ccc(F)c(Oc2ccc3ncc([C@H]4COC5(CCN(C6CCC(c7cc8c(cc7F)c(N7CCC(=O)NC7=O)nn8C)CC6)CC5)C4)nc3c2)c1C#N (single isomer, unassigned) [Compound 48]	< 1000 nM
CCN(C)S(=O)(=O)Nc1ccc(F)c(Oc2ccc3ncc(C4CC5(CCN(C6CCN(c7cc8c(cc7F)c(N7CCC(=O)NC7=O)nn8C)CC6)CC5)C4)nc3c2)c1C#N [Compound 256]	< 1000 nM

Read the next record carefully.
Data request: Item CCN(C)S(=O)(=O)Nc1ccc(F)c(Oc2ccc3ncn(C4CC5(C4)CN(C4CC6(C4)CN(c4cc7c(cc4F)c(N4CCC(=O)NC4=O)nn7C)C6)C5)c(=O)c3c2)c1C#N (stereo not drawn) [Compound 305] with A375-NRAS^Q61K cells - GI50?
Data returned: < 1000 nM

###

Target: BRAF V600E (Homo sapiens, UniProt P15056+Q96SW2, V600E)
Construct: knock-in of the HiBiT tag to the endogenous BRAF V600E locus; host or cells: A375.10 (A375 clonal line, CRISPR HiBiT knock-in at the endogenous BRAF V600E locus)
Assay: BRAF V600E HiBiT Degradation Assay
Format: cell-based
Settings: A375.10 cells, HiBiT, BRAF V600E, 24 hours; read-out: HiBiT-Degradation A375.10 BRAF 24 hours Emax
metric_name: Emax

See these solved cases before continuing.
compound	metric_name	readout_value
CCN(C)S(=O)(=O)Nc1ccc(F)c(Nc2ccc3ncn([C@H]4COC5(CCN(C6CCC(c7cc8c(cc7F)c(N7CCC(=O)NC7=O)nn8C)CC6)CC5)C4)c(=O)c3c2F)c1C#N (single isomer, unassigned)	Emax	< 50%
CCN(C)S(=O)(=O)Nc1ccc(F)c(Oc2ccc3ncn(C4CC5(C4)CN(C4CCC(c6cc7c(cc6F)c(N6CCC(=O)NC6=O)nn7C)CC4F)C5)c(=O)c3c2)c1C#N (single isomer, unassigned)	Emax	< 50%
CCN(C)S(=O)(=O)Nc1ccc(F)c(Nc2ccc3ncn([C@H]4COC5(CCN(C6CCC(c7cc8c(cc7F)c(N7CCC(=O)NC7=O)nn8C)CC6)CC5)C4)c(=O)c3c2)c1C#N (single isomer, unassigned)	Emax	< 50%
CCN(C)S(=O)(=O)Nc1ccc(F)c(Oc2ccc3ncn([C@H]4COC5(CCN(C6CCC(c7ccc(NC8CCC(=O)NC8=O)cc7F)CC6)CC5)C4)c(=O)c3c2)c1F (single isomer, unassigned)	Emax	< 50%

Read the next record carefully.
Data request: # get_value(readout='Emax', item= CCN(C)S(=O)(=O)Nc1ccc(F)c(Oc2ccc3ncn(C4CC5(C4)CN(CC4CN(c6cc7c(cc6F)c(N6CCC(=O)NC6=O)nn7C)C4)C5)c(=O)c3c2)c1C#N )
Data returned: < 50%

###

Entries annotated with measured Emax
Biological target: BRAF V600E (Homo sapiens, UniProt P15056+Q96SW2, V600E)
Construct: knock-in of the HiBiT tag to the endogenous BRAF V600E locus; host or cells: A375.10 (A375 clonal line, CRISPR HiBiT knock-in at the endogenous BRAF V600E locus)
Experiment: BRAF V600E HiBiT Degradation Assay
Type: cell-based
Details: A375.10 cells, BRAF V600E, 2 hours; residual protein remaining; read-out: HiBiT-Degradation A375.10 BRAF 2 hours Emax

compound	assay_system	Emax
CCN(C)S(=O)(=O)Nc1ccc(F)c(Oc2ccc3ncn(C4CC5(C4)CN(CC4CN(c6cc7c(cc6F)c(N6CCC(=O)NC6=O)nn7C)C4)C5)c(=O)c3c2)c1C#N	BRAF V600E (Homo sapiens, UniProt P15056+Q96SW2, V600E)	50 to 90%
CCN(C)S(=O)(=O)Nc1ccc(F)c(Oc2ccc3ncn([C@H]4COC5(CCN(CC6CN(c7cc8c(cc7F)c(N7CCC(=O)NC7=O)nn8C)C6)CC5)C4)c(=O)c3c2)c1C#N	BRAF V600E (Homo sapiens, UniProt P15056+Q96SW2, V600E)	50 to 90%

Read the next record carefully.
Data request: # get_value(readout='Emax', item= CCN(C)S(=O)(=O)Nc1ccc(F)c(Nc2ccc3ncn([C@H]4COC5(CCN(C6CCC(c7cc8c(cc7F)c(N7CCC(=O)NC7=O)nn8C)CC6)CC5)C4)c(=O)c3c2)c1C#N (single isomer, unassigned) )
Data returned: < 50%
